system: PPARg:RXRa 270nM:90nM, anti-RXR (NR concentration 270 nM, RXRa partner concentration 90 nM); assay: PBM binding z-score (relative to random genomic background probes); higher = stronger binding; sequences stand for … in GC…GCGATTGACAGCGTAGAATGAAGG
Listing of entries alongside the reported PBM binding z-score.

TCATATCGGTAAATGCTAGGTGAAAGTCCGATCT ... 2.06
AAAGACAGGTGATGAAGGTAACTCAGGCTATCAT ... 0.567
TCTTGTAGATCACGCAGGTTAAGAAAGCCTGAGT ... 1.37
AGTCAAAGTTCATCTAGGTAACGTACGATATGCT ... 6.46
GCTAGTTGGTCCGTAAAAGGTCACACACCGGTCG ... 3.29
AGAATGAGGTTACCAAAGATCAGGGACACGCTTG ... 2.9
CCTACTGGGCCAATGGTCATTGATTCCAATGCTC ... 5.51
CGTCCAAGTTCAAGGTAACGTAACAGAAAGCAGC ... 1.4
TCATATAGATAAATGCTAGGTGAAAGTCCGATCT ... 2.09
TCTAGCAGGCCAGAGGGTCACACAAGAGGTACGG ... 3.28

query: If you can, please state the reported PBM binding z-score value of AATACTGGGTCACTAGGCCAGAGTAGGTACGAAT .
result: 5.97

query: Please look up its PBM binding z-score: AGAATGAGGTAACCAAAGATCAGGGAAACGCTTG
result: 0.888

* * *

Parameter PBM binding z-score: see the listing below.
tested on: RARg:RXRa (NR concentration 270 nM, RXRa partner concentration 90 nM); experiment: PBM binding z-score (relative to random genomic background probes); higher = stronger binding; sequences stand for … in GC…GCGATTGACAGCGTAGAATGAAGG
// print number alone

ATAAGTAGGTTAAGGGTCATTCAGGTTGGTTCGC ... 4.8
ATCTCTAGGTAAAGCTAGTTCAGTGAATGCAAAT ... 0.0635

// next entry
query: Write down the reported PBM binding z-score of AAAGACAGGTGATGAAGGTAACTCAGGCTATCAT , test system: RARg:RXRa (NR concentration 270 nM, RXRa partner concentration 90 nM).
result: 0.231

* * *

PBM binding z-score listing for selected sequences.
tested on: THRa:RXRa (NR concentration 90 nM, RXRa partner concentration 90 nM); test: PBM binding z-score (relative to random genomic background probes); higher = stronger binding; sequences stand for … in GC…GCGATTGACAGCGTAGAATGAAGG
# print the numeric value only

query: Fill in: PBM binding z-score of ACTATTAGTTGACTTAGGGCAGCCGATACGACGC is ___
result: 0.635

* * *

system: PPARg:RXRa IVT, anti-PPARg (NR concentration 270 nM, RXRa partner concentration 90 nM); experiment: PBM binding z-score (relative to random genomic background probes); higher = stronger binding; sequences stand for … in GC…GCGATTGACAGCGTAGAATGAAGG
Threshold rule: PBM binding z-score greater than or equal to 3 is true; below that, false.

AGAACGAGGGCACGCTGAGTTGAAAGCAGAGTAG ... true
TCTTGTAGATAAACAGGAGGTTAAGAAAGATCGA ... false
AGAATGAGGTTATTAAGATCAGTGAATTGCGGTC ... false
TTTTGTAGATCAATAGAGGTTAAGAAAGTGCGCT ... false
AGTCAAGGTTCACTAGGTAACGTAAGATTCAGCT ... true

query: Identify whether the reported PBM binding z-score of the following sequence is 3 or greater: ATCTCTAGGTAAAATTCAGTGAAAGATCGATAGA
result: false

query: Identify whether the reported PBM binding z-score of the following sequence is 3 or greater: ATATGTACGTTAGCTGGGGTCATTCAGACTAGGC
result: false

query: Assess whether reported PBM binding z-score for CCATACAGGTGAGAAGGTAACTCAGCCTCGATTA sits at 3 or higher.
result: false
